Exercise: state measured pIC50 for each of the molecules provided.
- Target of assay: GSK3β (Glycogen synthase kinase-3 beta) (Homo sapiens, UniProt P49841)
- Sequence (P49841 whole entry): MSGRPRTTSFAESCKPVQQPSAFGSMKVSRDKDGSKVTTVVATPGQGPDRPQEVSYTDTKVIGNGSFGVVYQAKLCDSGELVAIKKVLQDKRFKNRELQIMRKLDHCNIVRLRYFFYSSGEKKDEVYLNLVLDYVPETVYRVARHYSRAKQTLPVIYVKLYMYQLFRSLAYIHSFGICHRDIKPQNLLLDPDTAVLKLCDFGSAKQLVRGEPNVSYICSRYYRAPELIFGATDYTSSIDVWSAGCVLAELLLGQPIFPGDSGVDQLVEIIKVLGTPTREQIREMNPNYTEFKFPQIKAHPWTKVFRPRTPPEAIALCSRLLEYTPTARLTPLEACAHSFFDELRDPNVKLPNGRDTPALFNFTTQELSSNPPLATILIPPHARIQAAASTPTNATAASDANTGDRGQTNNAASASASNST
pIC50: −log10 of the molar value.

Here is how some molecules turned out for pIC50.
Cc1cnc(N[C@H]2CC[C@H](Nc3ccc(-n4ccccc4=O)cn3)C2)nn1 [Example 67] | 5.68
Cc1cnc(N[C@H]2CC[C@H](Nc3ccc(-n4cccc(-c5cn[nH]c5)c4=O)cn3)C2)nn1 [Example 199] | < 5.00
O=c1cccnn1-c1ccc(N[C@H]2CC[C@H](Nc3ncc(C4CC4)nn3)C2)nc1 [Example 118] | < 5.00
O=c1c(OC(F)(F)F)cccn1-c1ccc(N[C@H]2CC[C@H](Nc3ncc(C4CC4)nn3)C2)nc1 [Example 52] | < 5.00
O=C(NC1COC1)c1cnc(N[C@H]2CC[C@H](Nc3ccc(-n4ccccc4=O)cn3)C2)nn1 [Example 70] | < 5.00

Required: pIC50, one value per molecule below.
1. Cn1c(=O)n(-c2ccc(N[C@H]3CC[C@H](Nc4ncc(C5CC5)nn4)C3)nc2)c2ccc(C(=O)O)cc21 [Example 121]
2. O=c1ccc(OC(F)F)cn1-c1ccc(N[C@H]2CC[C@H](Nc3ncc(C4CC4)nn3)C2)nc1 [Example 166]
3. O=c1ccccn1-c1ccc(N[C@H]2CC[C@H](Nc3ncc(C4CC4)nn3)C2)nc1 [Example 50]
4. COc1cccc(F)c1-c1ccc(N[C@H]2CC[C@H](Nc3ncc(C)nn3)C2)nc1 [Example 308]

## Result
[5.30, 5.66, "< 5.00", "< 5.00"]

Your task in this section: give pIC50 for each listed record.
1. COc1ccnn(-c2ccc(N[C@H]3CC[C@H](Nc4ncc(C)nn4)C3)nc2)c1=O [Example 220]
2. Cc1cccn(-c2ccc(N[C@H]3CC[C@H](Nc4ncc(C5CC5)nn4)C3)nc2)c1=O [Example 66]
3. Cc1cnc(N[C@H]2CC[C@H](Nc3ccc(-n4cccc(C(F)(F)F)c4=O)cn3)C2)nn1 [Example 135]
4. Cn1c(=O)n(-c2ccc(N[C@H]3CC[C@H](Nc4ncc(C5CC5)nn4)C3)nc2)c2ccc(C#N)cc21 [Example 117]
5. O=C(NCC(F)F)c1cnc(N[C@H]2CC[C@H](Nc3ccc(-n4ccccc4=O)cn3)C2)nn1 [Example 71]

## Result
< 5.00
< 5.00
< 5.00
< 5.00
< 5.00

Give one value of pIC50 per listed molecule.
1. Cn1c(=O)n(-c2ccc(N[C@H]3CC[C@H](Nc4ncc(C5CC5)nn4)C3)nc2)c2cc(P(C)(C)=O)ccc21 [Example 125]
2. Cc1cnc(N[C@H]2CC[C@H](Nc3ccc(-c4ccccc4C#N)cn3)C2)nn1 [Example 247]

## Result
1. < 5.00
2. < 5.00

----------
Exercise: for every item that follows, state its recorded IC50.
- Target of assay: PCSK9 (Homo sapiens, UniProt Q8NBP7, G670E/V474I)
- Sequence (Q8NBP7 with tags, fused parts or gaps V474I/G670E): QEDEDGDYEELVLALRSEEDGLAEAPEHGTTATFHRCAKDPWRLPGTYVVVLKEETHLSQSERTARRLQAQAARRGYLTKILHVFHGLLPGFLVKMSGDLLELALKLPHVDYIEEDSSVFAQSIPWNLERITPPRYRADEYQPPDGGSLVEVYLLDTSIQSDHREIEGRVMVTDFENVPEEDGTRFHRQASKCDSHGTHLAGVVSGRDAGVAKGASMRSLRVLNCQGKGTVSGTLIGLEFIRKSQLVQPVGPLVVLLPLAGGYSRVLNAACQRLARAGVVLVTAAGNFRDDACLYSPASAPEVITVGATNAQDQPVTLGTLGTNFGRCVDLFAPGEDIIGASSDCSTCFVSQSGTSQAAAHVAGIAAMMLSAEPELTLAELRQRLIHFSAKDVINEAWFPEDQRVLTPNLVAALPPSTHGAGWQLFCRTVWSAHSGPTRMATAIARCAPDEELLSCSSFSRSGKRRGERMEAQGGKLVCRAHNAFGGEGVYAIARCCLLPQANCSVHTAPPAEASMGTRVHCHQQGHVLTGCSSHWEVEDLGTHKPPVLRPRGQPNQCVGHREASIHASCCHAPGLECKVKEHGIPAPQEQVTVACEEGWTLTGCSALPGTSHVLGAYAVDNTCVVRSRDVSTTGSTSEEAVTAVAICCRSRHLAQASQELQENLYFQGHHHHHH
- Assay explanation: biochemical
Numbers only, in nM.

I need IC50 for every entry listed below, if you could help.
1. Cc1ccc(=O)n(-c2ccc(N[C@H]3CC[C@H](Nc4ncc(C)nn4)C3)nc2)c1
2. Cc1cnc(N[C@H]2CC[C@H](Nc3ccc(-n4ccccc4=O)cn3)C2)nn1
3. COc1ccccc1-c1ccc(N[C@H]2CC[C@H](Nc3ncc(C)nn3)C2)nc1
4. Cc1ccc(=O)n(-c2ccc(N[C@H]3CC[C@H](Nc4ncc(C(=O)NC5COC5)nn4)C3)nc2)c1
5. CNC(=O)c1cnc(N[C@H]2CC[C@H](Nc3ccc(-n4ccccc4=O)cn3)C2)nn1
6. O=c1cccnn1-c1cnc(N[C@H]2CC[C@H](Nc3ncc(C4CC4)nn3)C2)nc1

## Result
[14, 16, 302, 14, 33, 73]

State recorded IC50 for all listed compounds.
1. O=c1ccc(OC(F)F)cn1-c1ccc(N[C@H]2CC[C@H](Nc3ncc(C4CC4)nn3)C2)nc1
2. N#Cc1ccc(F)c(-c2ccc(N[C@H]3CC[C@H](Nc4ncc(C5CC5)nn4)C3)nc2)n1
3. Cc1cnc(N[C@H]2CC[C@H](Nc3ccc(-n4c(=O)n(C)c5cc(C#N)cnc54)cn3)C2)nn1
4. Cc1cnc(N[C@H]2CC[C@H](Nc3ccc(-n4ncc5ccccc54)cn3)C2)nn1
5. Cc1cnc(N[C@H]2CC[C@H](Nc3ccc(-n4cc5ccccc5n4)cn3)C2)nn1
6. C#CCNC(=O)c1cnc(N[C@H]2CC[C@H](Nc3ccc(-n4ccccc4=O)cn3)C2)nn1
7. COc1cccn(-c2ccc(N[C@H]3CC[C@H](Nc4ncc(C)nn4)C3)nc2)c1=O

## Result
7.2
184
3.4
5.5
37
20
2.3
